tested_target: T1, human LRP5 domains E3-E4 (E644-Q1263 of SEQ ID NO: 42) (human, UniProt O75197 644-1263)
T1 construct: Soluble fragment made in-house; It was biotinylated for phage sorting; also called LRP5-E3/E4; LRP5E3/E4
T1 sequence: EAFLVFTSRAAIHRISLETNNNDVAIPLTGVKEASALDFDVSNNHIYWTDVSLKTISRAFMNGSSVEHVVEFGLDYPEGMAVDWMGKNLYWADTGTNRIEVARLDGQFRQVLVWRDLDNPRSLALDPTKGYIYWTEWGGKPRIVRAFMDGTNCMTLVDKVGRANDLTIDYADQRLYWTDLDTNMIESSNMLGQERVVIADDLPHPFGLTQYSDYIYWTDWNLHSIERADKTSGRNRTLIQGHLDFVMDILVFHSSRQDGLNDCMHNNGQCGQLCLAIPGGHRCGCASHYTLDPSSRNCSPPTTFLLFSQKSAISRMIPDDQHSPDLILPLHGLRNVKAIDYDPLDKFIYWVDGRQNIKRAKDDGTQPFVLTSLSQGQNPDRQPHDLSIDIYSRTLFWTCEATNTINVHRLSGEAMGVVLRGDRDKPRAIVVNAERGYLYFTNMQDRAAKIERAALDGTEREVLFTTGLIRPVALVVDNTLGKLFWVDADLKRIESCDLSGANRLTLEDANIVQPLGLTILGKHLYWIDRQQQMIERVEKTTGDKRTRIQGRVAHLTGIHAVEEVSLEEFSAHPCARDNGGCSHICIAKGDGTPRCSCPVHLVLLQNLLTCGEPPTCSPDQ
measurement_protocol: SPR, BIAcore T100, IgG captured by anti-human Fc, LRP5E3/E4 as analyte, 25 C
assay_readout: koff (s⁻¹)
Quick note: give the figure in s⁻¹, leave out the unit.

Solved cases (2 shown):
• YW629.51.63 (antibody, human IgG1, V domains shown, also called P6C.51.63) VH: EVQLVESGGGLVQPGGSLRLSCAASGFTFSSYAMHWVRQAPGKGLEWVSRISSNGGSTYYADSVKGRFTISRDNSKNTLYLQMNSLRAEDTAVYYCARWIPQSYPFASYKSGFDYWGQGTLVTVSS VL: DIQMTQSPSSLSASVGDRVTITCRASQSIYYYLAWYQQKPGKAPKLLIYDASSLESGVPSRFSGSGSGTDFTLTISSLQPEDFATYYCQQYYSYPFTFGQGTKVEIKR = 0.000199
• YW629.51.80 (antibody, human IgG1, V domains shown, also called P6C.51.80) VH: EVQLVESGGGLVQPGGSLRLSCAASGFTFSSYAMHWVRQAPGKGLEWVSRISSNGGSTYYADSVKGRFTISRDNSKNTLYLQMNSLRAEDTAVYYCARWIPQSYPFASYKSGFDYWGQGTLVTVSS VL: DIQMTQSPSSLSASVGDRVTITCRASQAIYSYLAWYQQKPGKAPKLLIYDASSLESGVPSRFSGSGSGTDFTLTISSLQPEDFATYYCQQYYSYPFTFGQGTKVEIKR = 0.000104

Then this binder:
Value of measured koff for the entry YW629.51.77 (antibody, human IgG1, V domains shown, also called P6C.51.77) VH: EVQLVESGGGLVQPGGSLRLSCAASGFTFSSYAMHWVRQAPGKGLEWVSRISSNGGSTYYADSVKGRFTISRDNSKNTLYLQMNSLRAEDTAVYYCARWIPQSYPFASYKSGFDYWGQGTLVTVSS VL: DIQMTQSPSSLSASVGDRVTITCRASQVIYGYLAWYQQKPGKAPKLLIYDASTRESGVPSRFSGSGSGTDFTLTISSLQPEDFATYYCQQYYSYPFTFGQGTKVEIKR : 0.000165
